Just for reference, ChEMBL document CHEMBL1124458 is where these values come from.

- experimental-system: Adenosine receptor A1 (Rattus norvegicus)
- test-summary: Percentage inhibition of [125I]APNEA binding to adenosine A1 receptor from rat brain after 45 min incubation at 500 nM

{"columns": ["smiles-record", "experimental-system", "inhibition"],
 "data": [
  ["CCCn1c(=O)c2nc(-c3ccc(OCC(=O)NCCNC(=O)CCC(=O)ON4C(=O)CCC4=O)cc3)[nH]c2n(CCC)c1=O", "Adenosine receptor A1 (Rattus norvegicus)", "0%"],
  ["CCCn1c(=O)c2nc(-c3ccc(OCC(=O)NCCNC(=O)CCCCC(C)=O)cc3)[nH]c2n(CCC)c1=O", "Adenosine receptor A1 (Rattus norvegicus)", "0%"],
  ["CCCn1c(=O)c2nc(-c3ccc(OCC(=O)NCCN=C(S)Nc4cccc(N=C=S)c4)cc3)[nH]c2n(CCC)c1=O", "Adenosine receptor A1 (Rattus norvegicus)", "94%"],
  ["CCCn1c(=O)c2nc(-c3ccc(OCC(=O)NCCN=C(S)Nc4ccc(N=C=S)cc4)cc3)[nH]c2n(CCC)c1=O", "Adenosine receptor A1 (Rattus norvegicus)", "73%"],
  ["CCCn1c(=O)c2nc(-c3ccc(OCC(=O)NCC=O)cc3)[nH]c2n(CCC)c1=O", "Adenosine receptor A1 (Rattus norvegicus)", "0%"]
]}

* * *

- experimental-system: UniProt P25099
- Sequence (P25099 whole entry): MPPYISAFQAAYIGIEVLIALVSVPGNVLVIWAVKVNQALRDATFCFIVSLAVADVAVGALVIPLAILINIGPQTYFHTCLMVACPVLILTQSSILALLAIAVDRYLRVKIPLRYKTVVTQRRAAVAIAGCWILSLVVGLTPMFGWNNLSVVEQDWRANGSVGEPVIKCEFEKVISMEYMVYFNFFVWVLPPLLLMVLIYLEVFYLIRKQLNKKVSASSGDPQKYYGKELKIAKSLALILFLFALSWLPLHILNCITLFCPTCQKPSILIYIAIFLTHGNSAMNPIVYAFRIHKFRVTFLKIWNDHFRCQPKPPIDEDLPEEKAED
- test-summary: Affinity for adenosine A1 receptor using [3H]-N6 -(phenylisopropyl)-adenosine (R)-[3H]-PIA in rat brain.
- Assay type: tissue-based
Label class 1 when Ki < 9 nM; otherwise class 0.

{"columns": ["compound", "experimental-system", "category-label"],
 "data": [
  ["O=C(Cc1ccc(NC(=O)Cc2ccc(Nc3ncnc4c3ncn4C3O[C@H](CO)[C@@H](O)[C@H]3O)cc2)cc1)NCC/N=C(\\S)Nc1ccc(S(=O)(=O)[O-])cc1.[Na+] (stereo not given in full)", "UniProt P25099", "class 0"],
  ["N#Cc1ccc(N/C(S)=N/CCNC(=O)Cc2ccc(NC(=O)Cc3ccc(Nc4ncnc5c4ncn5C4O[C@H](CO)[C@@H](O)[C@H]4O)cc3)cc2)cc1 (stereo not given in full)", "UniProt P25099", "class 1"],
  ["CCCn1c(=O)c2[nH]c(-c3ccc(OCC(=O)NCCNC(=O)CNC(=O)CCCN4C(=O)C=CC4=O)cc3)nc2n(CCC)c1=O", "UniProt P25099", "class 0"],
  ["COc1ccc(NC(=S)NCCNC(=O)Cc2ccc(NC(=O)Cc3ccc(Nc4ncnc5c4ncn5C4O[C@H](CO)[C@@H](O)[C@H]4O)cc3)cc2)cc1 (stereo not given in full)", "UniProt P25099", "class 1"],
  ["O=C(Cc1ccc(NC(=O)Cc2ccc(Nc3ncnc4c3ncn4C3O[C@H](CO)[C@@H](O)[C@H]3O)cc2)cc1)NCC/N=C(\\S)Nc1c(F)c(F)c(F)c(F)c1F (stereo not given in full)", "UniProt P25099", "class 1"]
]}

* * *

- experimental-system: Adenosine receptor A1 (Rattus norvegicus)
- Sequence (P25099 whole entry): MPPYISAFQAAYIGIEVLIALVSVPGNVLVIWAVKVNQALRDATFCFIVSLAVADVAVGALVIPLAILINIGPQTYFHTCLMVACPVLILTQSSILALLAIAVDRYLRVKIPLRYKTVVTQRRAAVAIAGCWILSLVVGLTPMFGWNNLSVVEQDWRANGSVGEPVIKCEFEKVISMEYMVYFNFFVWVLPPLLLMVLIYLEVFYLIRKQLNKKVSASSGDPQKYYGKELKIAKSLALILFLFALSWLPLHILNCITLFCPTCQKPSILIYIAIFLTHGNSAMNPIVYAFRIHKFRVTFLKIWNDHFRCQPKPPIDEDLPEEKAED
- test-summary: Affinity for adenosine A1 receptor using [3H]N6-(phenylisopropyl)adenosine (R)-[3H]-PIA as a radioligand in rat brain.
- Format: tissue-based
pKi: −log10 of the molar value.

{"columns": ["compound", "pKi"],
 "data": [
  ["CCCn1c(=O)c2nc(-c3ccc(OCC(=O)NCCN=C(S)Nc4ccc([N+](=O)[O-])cc4)cc3)[nH]c2n(CCC)c1=O", 7.80],
  ["CCCn1c(=O)c2nc(-c3ccc(OCC(=O)NCCN=C(S)Nc4ccc(S(=O)(=O)[O-])cc4)cc3)[nH]c2n(CCC)c1=O.[Na+]", 6.44],
  ["O=C(Cc1ccc(NC(=O)Cc2ccc(Nc3ncnc4c3ncn4C3O[C@H](CO)[C@@H](O)[C@H]3O)cc2)cc1)NCCNC(=S)Nc1cccc(N=C=S)c1 (stereo partly specified)", 9.06],
  ["O=C(Cc1ccc(Nc2ncnc3c2ncn3C2O[C@H](CO)[C@@H](O)[C@H]2O)cc1)ON1C(=O)CCC1=O (stereo partly specified)", 8.08],
  ["CCCn1c(=O)c2nc(-c3ccc(OCC(=O)NCCN=C(S)Nc4ccc(OC)cc4)cc3)[nH]c2n(CCC)c1=O", 7.48],
  ["O=C(Cc1ccc(NC(=O)Cc2ccc(Nc3ncnc4c3ncn4C3O[C@H](CO)[C@@H](O)[C@H]3O)cc2)cc1)NCCNC(=S)Nc1ccccc1F (stereo partly specified)", 8.17],
  ["CCCn1c(=O)c2[nH]c(-c3ccc(OCC(=O)NCCNC(=S)Nc4ccc(C#N)cc4)cc3)nc2n(CCC)c1=O", 7.78],
  ["O=C(Cc1ccc(NC(=O)Cc2ccc(Nc3ncnc4c3ncn4C3O[C@H](CO)[C@@H](O)[C@H]3O)cc2)cc1)NCCNC(=S)Nc1ccc(Br)cc1 (stereo partly specified)", 8.92],
  ["CCCn1c(=O)c2nc(-c3ccc(OCC(=O)NCCNC(=O)CCCN4C(=O)C=CC4=O)cc3)[nH]c2n(CCC)c1=O", 7.42],
  ["CCCn1c(=O)c2[nH]c(-c3ccc(OCC(=O)NCCNC(=O)Cc4ccc(NC(=S)Nc5ccc(N=C=S)cc5)cc4)cc3)nc2n(CCC)c1=O", 7.60],
  ["O=C(Cc1ccc(Nc2ncnc3c2ncn3C2O[C@H](CO)[C@@H](O)[C@H]2O)cc1)Nc1ccc(CC(=O)ON2C(=O)CCC2=O)cc1 (stereo partly specified)", 8.02],
  ["O=C(Cc1ccc(NC(=O)Cc2ccc(Nc3ncnc4c3ncn4C3O[C@H](CO)[C@@H](O)[C@H]3O)cc2)cc1)NCCN=C=S (stereo partly specified)", 8.35],
  ["CCCn1c(=O)c2nc(-c3ccc(OCC(=O)NCCN=C(S)Nc4ccc(F)cc4)cc3)[nH]c2n(CCC)c1=O", 7.81],
  ["O=C(Cc1ccc(NC(=O)Cc2ccc(Nc3ncnc4c3ncn4C3O[C@H](CO)[C@@H](O)[C@H]3O)cc2)cc1)NCC/N=C(\\S)Nc1ccc(F)cc1 (stereo partly specified)", 8.06],
  ["O=C(Cc1ccc(NC(=O)Cc2ccc(Nc3ncnc4c3ncn4C3O[C@H](CO)[C@@H](O)[C@H]3O)cc2)cc1)NCCNC(=S)Nc1ccc(N=C=S)cc1 (stereo partly specified)", 9.33],
  ["O=C(Cc1ccc(NC(=O)Cc2ccc(Nc3ncnc4c3ncn4C3O[C@H](CO)[C@@H](O)[C@H]3O)cc2)cc1)NCC/N=C(\\S)Nc1ccc([N+](=O)[O-])cc1 (stereo partly specified)", 8.71]
]}

* * *

- experimental-system: UniProtKB P25099
- Sequence (whole entry): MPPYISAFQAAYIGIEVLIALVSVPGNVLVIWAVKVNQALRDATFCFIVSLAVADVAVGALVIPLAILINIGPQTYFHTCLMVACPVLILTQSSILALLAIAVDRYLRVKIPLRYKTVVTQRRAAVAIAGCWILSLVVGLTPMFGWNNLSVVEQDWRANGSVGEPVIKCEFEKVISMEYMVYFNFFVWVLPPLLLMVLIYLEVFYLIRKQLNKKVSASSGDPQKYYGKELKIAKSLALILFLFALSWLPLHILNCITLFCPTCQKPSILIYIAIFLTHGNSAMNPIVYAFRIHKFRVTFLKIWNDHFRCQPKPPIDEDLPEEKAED
- test-summary: Inhibition of [125I]-APNEA binding to adenosine A1 receptor of rat brain at 50 nM
Could you label it satisfied if measured inhibition is 20% or higher, and not satisfied otherwise?

{"columns": ["compound", "category-label"],
 "data": [
  ["CCCn1c(=O)c2nc(-c3ccc(OCC(=O)NCCNC(=O)CCSSc4ccccn4)cc3)[nH]c2n(CCC)c1=O", "not satisfied"],
  ["CCCn1c(=O)c2nc(-c3ccc(OCC(=O)NCCNC(=O)C/N=C(\\S)Nc4ccc(N=C=S)cc4)cc3)[nH]c2n(CCC)c1=O", "satisfied"],
  ["CCCn1c(=O)c2nc(-c3ccc(OCC(=O)ON4C(=O)CCC4=O)cc3)[nH]c2n(CCC)c1=O", "not satisfied"],
  ["O=C(Cc1ccc(Nc2ncnc3c2ncn3C2O[C@H](CO)[C@@H](O)[C@H]2O)cc1)ON1C(=O)CCC1=O (stereo not given in full)", "satisfied"],
  ["O=C(Cc1ccc(Nc2ncnc3c2ncn3C2O[C@H](CO)[C@@H](O)[C@H]2O)cc1)Nc1ccc(CC(=O)ON2C(=O)CCC2=O)cc1 (stereo not given in full)", "satisfied"]
]}
